experimentNotes: Serum levels of JWH-073 and JWH-210 after sc. administration (LC-MS)
protocolConditions: male, Wistar, rat, serum, subcutaneous, 0.5 mg/kg

smi | concentration at 24 h
CCCCn1cc(C(=O)c2cccc3ccccc23)c2ccccc21 | 0.41 ng/mL

Source listed as paper PMC6206206.
